Test system: HT-29
Assay: Antiproliferative activity against human HT-29 cells after 72 hrs by MTT assay
Assay type: functional, cell-based
Conditions: HT-29, 72 h
reported metric: IC50

Documented IC50 of COc1cccc(C(=O)N[C@@H]2[C@H](O)[C@@H](CO)O[C@H]2c2nc(C(N)=O)cs2)c1 : > 100 µM

Documented IC50 of CC(=O)N[C@@H]1[C@H](O)[C@@H](CO)O[C@H]1c1nc(C(N)=O)cs1 : > 100 µM

Documented IC50 of [N-]=[N+]=N[C@@H]1[C@H](O)[C@@H](CO)O[C@H]1c1nc(C(N)=O)cs1 : > 100 µM

Documented IC50 of NC(=O)c1csc([C@@H]2O[C@H](CO)[C@@H](O)[C@H]2NC(=O)c2ccccc2)n1 : 0.02 µM

Documented IC50 of NC(=O)c1csc([C@@H]2O[C@H](CO)[C@@H](O)[C@H]2N)n1 : > 100 µM

----------
System: K562
Experiment: Induction of specific apoptosis in human K562 cells after 24 hrs by annexin V-FITC/propidium iodide staining based flow cytometry
Type: functional
Design: concentration or dose not given beside the values
I'd appreciate it if you could supply Activity values for the items below.
Provide only the numeric value, understood in %.

Documented Activity of [N-]=[N+]=N[C@@H]1[C@H](O)[C@@H](CO)O[C@H]1c1nc(C(N)=O)cs1 : 10.73

Documented Activity of Cl.NC(=O)c1csc([C@@H]2O[C@H](CO)[C@@H](O)[C@H]2N)n1 : 10.71

Documented Activity of NC(=O)c1csc([C@@H]2O[C@H](CO)[C@@H](O)[C@H]2N)n1 : 17.57

Documented Activity of COc1cccc(C(=O)N[C@@H]2[C@H](O)[C@@H](CO)O[C@H]2c2nc(C(N)=O)cs2)c1 : 11.88

Documented Activity of NC(=O)c1csc([C@@H]2O[C@H](CO)[C@@H](O)[C@H]2NC(=O)c2ccccc2)n1 : 29

Documented Activity of NC(=O)c1csc([C@@H]2O[C@H](CO)[C@@H](O)[C@H]2O)n1 [TIAZOFURIN] : -0.34

Documented Activity of CC(=O)N[C@@H]1[C@H](O)[C@@H](CO)O[C@H]1c1nc(C(N)=O)cs1 : 12.6
